# MEASUREMENT_TARGET: SLO (Streptococcus pyogenes serotype M1, UniProt P0C0I3)
# Sequence (P0C0I3 34-571 limits assumed): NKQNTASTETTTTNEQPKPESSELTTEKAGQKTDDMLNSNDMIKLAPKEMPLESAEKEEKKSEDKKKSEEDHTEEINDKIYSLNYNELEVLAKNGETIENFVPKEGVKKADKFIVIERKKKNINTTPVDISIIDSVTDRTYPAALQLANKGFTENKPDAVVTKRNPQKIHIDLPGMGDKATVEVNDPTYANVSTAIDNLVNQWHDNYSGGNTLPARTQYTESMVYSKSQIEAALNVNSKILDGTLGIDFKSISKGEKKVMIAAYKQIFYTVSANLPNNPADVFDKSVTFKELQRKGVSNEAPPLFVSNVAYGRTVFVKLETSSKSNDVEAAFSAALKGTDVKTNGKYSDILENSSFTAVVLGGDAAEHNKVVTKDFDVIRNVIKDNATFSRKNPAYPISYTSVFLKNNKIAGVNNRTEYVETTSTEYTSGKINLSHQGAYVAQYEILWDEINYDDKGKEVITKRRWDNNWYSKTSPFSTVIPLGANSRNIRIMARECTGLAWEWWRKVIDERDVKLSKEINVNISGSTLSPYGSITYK
# ASSAY_DETAILS: biochemical
# Format: binding
pKd: −log10 of the molar value.
ASSAY_ENDPOINT: pKd

[
  {
    "COMPOUND": "C[C@@H]1O[C@@H](O[C@H]2C(O)O[C@H](CO)[C@H](O)[C@@H]2O)[C@@H](O)[C@H](O)[C@@H]1O (some centres unmarked) [BGH di, blood group H antigen disaccharide]",
    "ASSAY_ENDPOINT": "pKd",
    "REPORTED_MEASUREMENT": 6.22
  },
  {
    "COMPOUND": "CC(=O)N[C@H]1[C@H](O[C@H]2[C@@H](O)[C@@H](CO)O[C@@H](O[C@H]3[C@H](O)[C@@H](O)C(O)O[C@@H]3CO)[C@@H]2O)O[C@H](CO)[C@@H](O[C@@H]2O[C@H](CO)[C@H](O)[C@H](O)[C@H]2O)[C@@H]1O (mixture of isomers)",
    "ASSAY_ENDPOINT": "pKd",
    "REPORTED_MEASUREMENT": 9.03
  }
]

---

# MEASUREMENT_TARGET: UniProt:Q7ZAK5
# Sequence (Q7ZAK5 whole entry, looked up): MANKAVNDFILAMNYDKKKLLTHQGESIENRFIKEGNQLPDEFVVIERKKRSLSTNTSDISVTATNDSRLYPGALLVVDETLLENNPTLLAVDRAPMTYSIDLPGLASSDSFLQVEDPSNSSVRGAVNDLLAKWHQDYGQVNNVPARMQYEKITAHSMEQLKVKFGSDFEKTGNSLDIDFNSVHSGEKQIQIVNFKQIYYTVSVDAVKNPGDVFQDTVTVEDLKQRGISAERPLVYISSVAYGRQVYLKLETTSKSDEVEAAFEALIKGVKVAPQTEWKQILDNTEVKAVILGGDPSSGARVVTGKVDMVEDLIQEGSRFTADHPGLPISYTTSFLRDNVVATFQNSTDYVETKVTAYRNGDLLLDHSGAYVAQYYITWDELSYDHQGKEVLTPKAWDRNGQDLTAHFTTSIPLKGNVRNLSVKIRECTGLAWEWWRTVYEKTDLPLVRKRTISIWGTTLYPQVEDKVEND
# ASSAY_DETAILS: biochemical
# Type: binding
pKd: −log10 of the molar value.
ASSAY_ENDPOINT: pKd

[
  {
    "CHEM_SMILES": "CC(=O)[C@H]1CC[C@H]2[C@@H]3CC=C4C[C@@H](O)CC[C@]4(C)[C@H]3CC[C@]12C",
    "REPORTED_MEASUREMENT": "~9.40"
  }
]
